System: Human immunodeficiency virus 1
METHOD_DESCRIPTION: Antiviral activity against HIV1 NL4-3 infected in human MT4 cells assessed as p24 antigen level after 4 days by ELISA
Format: functional, organism-based
CONDITION_CONTEXT: Human immunodeficiency virus 1, NL4-3, MT4, 96 h
READOUT_TYPE: pIC50
Scale: negative log10 of molar concentration, which is what pIC50 denotes.

Lookup: Quick one: pIC50 of C=C(C)[C@@H]1CC[C@]2(C(=O)OCc3cn([C@H]4C[C@H](n5cc(C)c(=O)[nH]c5=O)O[C@@H]4CO)nn3)CC[C@]3(C)[C@H](CC[C@@H]4[C@@]5(C)CC[C@H](OC(=O)CC(C)(C)C(=O)O)C(C)(C)[C@@H]5CC[C@]43C)[C@@H]12 ?
Found: 7.00

Lookup: Quick one: pIC50 of C=C(C)[C@@H]1CC[C@]2(C(=O)ON3C(=O)CCC3=O)CC[C@]3(C)[C@H](CC[C@@H]4[C@@]5(C)CC[C@H](OC(=O)CC(C)(C)C(=O)O)C(C)(C)[C@@H]5CC[C@]43C)[C@@H]12 ?
Found: 6.89

Lookup: Quick one: pIC50 of C=C(C)[C@@H]1CC[C@]2(C(=O)OCOCCOC)CC[C@]3(C)[C@H](CC[C@@H]4[C@@]5(C)CC[C@H](OC(=O)CC(C)(C)C(=O)O)C(C)(C)[C@@H]5CC[C@]43C)[C@@H]12 ?
Found: 7.34
